Target Under Test: CDK9/CyclinT (Homo sapiens, UniProt P50750)
Construct: purchased Proqinase, Freiburg, Germany
Sequence (P50750 whole entry): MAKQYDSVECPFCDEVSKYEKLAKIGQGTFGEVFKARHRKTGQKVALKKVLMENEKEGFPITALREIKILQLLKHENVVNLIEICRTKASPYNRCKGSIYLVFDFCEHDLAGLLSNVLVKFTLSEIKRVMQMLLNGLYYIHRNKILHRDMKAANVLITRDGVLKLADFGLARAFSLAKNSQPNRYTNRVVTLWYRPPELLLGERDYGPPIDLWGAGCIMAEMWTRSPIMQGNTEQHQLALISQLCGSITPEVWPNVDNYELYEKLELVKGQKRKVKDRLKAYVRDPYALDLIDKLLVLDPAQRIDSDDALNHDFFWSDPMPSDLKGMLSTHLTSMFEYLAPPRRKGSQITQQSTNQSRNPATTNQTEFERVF
Sequence (O60563 whole entry partner): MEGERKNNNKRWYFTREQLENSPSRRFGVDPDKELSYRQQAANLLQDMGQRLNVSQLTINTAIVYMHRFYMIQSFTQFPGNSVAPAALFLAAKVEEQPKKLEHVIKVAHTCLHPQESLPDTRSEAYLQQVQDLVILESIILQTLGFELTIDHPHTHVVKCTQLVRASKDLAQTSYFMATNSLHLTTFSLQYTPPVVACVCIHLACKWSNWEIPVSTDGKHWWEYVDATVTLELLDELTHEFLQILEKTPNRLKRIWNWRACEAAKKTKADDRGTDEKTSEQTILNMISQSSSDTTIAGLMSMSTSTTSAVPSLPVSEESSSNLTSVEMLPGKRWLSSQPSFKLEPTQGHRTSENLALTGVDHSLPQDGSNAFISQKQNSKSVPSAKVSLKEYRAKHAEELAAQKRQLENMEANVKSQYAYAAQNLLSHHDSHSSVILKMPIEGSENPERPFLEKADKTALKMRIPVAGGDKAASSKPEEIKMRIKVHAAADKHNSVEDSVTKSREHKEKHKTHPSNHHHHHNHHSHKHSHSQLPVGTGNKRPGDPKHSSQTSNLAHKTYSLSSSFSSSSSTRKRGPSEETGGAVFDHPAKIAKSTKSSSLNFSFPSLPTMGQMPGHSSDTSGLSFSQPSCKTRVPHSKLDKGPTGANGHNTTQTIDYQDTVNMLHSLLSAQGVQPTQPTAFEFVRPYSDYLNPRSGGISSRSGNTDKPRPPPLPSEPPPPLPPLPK
Test Description: ADP-Glo Kinase Assay, CDK9/CyclinT; note: ATP at apparent Km (26 µM)
Format: biochemical
Details: read-out: % inhibition at 1 μM CDK9/CyclinT
Note to self: values exactly at 20% are y. So inhibition at 1 µM at or above 20% is y, below is n.

Check the entry COc1c(Br)c2c3c(nc(N4CCNCC4)n3CCC2)c1Br : does inhibition at 1 µM equal or exceed 20%?
n

Now the compound CCN(CC)c1nc2c(I)c(Br)c(Br)c3c2n1CCC3
y

Next record, please: CN1CCC(c2nc3c(Br)c(Br)c(Br)c4c3n2CCC4)CC1
n

Now consider CN1CCN(c2nc3c(Br)c(Br)c(Br)c4c3n2CCC4)CC1 .
n

Same read-out for CC1(C)CN(c2nc3c(I)c(Br)c(Br)c4c3n2CCC4)CCN1 ?
n

Repeat with N[C@H]1CCN(c2nc3c(Br)c(Br)c(Br)c4c3n2CCC4)C1
y

Record: CN(C)C1CCN(c2nc3c(Br)c(Br)c(Br)c4c3n2CCC4)C1 (stereo not drawn)
n

# repeat for O[C@H]1CCN(c2nc3c(Br)c(Br)c(Br)c4c3n2CCC4)C1
y

Then CC1CN(c2nc3c(Br)c(Br)c(Br)c4c3n2CCC4)CCN1 (stereo not drawn) ?
y

Please give the result for Cc1c(Br)c(Br)c2c3c1nc(N1CCNC(C)C1)n3CCC2 (stereo not drawn) too.
n

Can you check Cc1c(Br)c(Br)c2c3c1nc(N1CCNCC1)n3CCC2 next?
n

Now give it for Nc1nc2c(I)c(Br)c(Br)c3c2n1CCC3 too.
n

// same read-out, input: Brc1c(Br)c2c3c(nc(N4CCNCC4)n3CCC2)c1I
y

Try this compound too: O[C@@H]1CCN(c2nc3c(Br)c(Br)c(Br)c4c3n2CCC4)C1
y

Now this one: Cc1c(Br)c(Br)c2c3c1nc(N1CCN(C)CC1)n3CCC2
n

And the next one, CCN(CC)c1nc2c(C)c(Br)c(Br)c3c2n1CCC3 ?
n

Next entry: CC1CCCN1c1nc2c(Br)c(Br)c(Br)c3c2n1CCC3 (stereo not drawn)
n

Same question for Brc1c(Br)c2c3c(nc(NCCCN4CCCC4)n3CCC2)c1Br please.
n

Let us now turn to C[C@H]1CN(c2nc3c(Br)c(Br)c(Br)c4c3n2CCC4)CCN1
y

And then C[C@@H]1CN(c2nc3c(I)c(Br)c(Br)c4c3n2CCC4)CCN1 , what is it?
y

Another compound: C[C@H]1CN(c2nc3c(I)c(Br)c(Br)c4c3n2CCC4)CCN1
y

Input NC1CCCN(c2nc3c(Br)c(Br)c(Br)c4c3n2CCC4)CC1 (stereo not drawn)
n

Same question for O=[N+]([O-])c1c(Br)c(Br)c2c3c1nc(N1CCNCC1)n3CCC2 please.
n

---

System: HCT116 cells
Test Description: MTS viability assay, HCT116
Assay type: cell-based
Details: Homo sapiens, HCT-116, HCT116, 72 hour incubation, read-out: IC50 [μM] HCT116 ED50
Counter-ions that a name gives are not always drawn.
Note: every record was labeled by where its IC50 sits among small value (below 1 µM), mid value (1 µM to below 2 µM), large value (2 µM or more)

Entry CC1CNCCN1c1nc2c(Br)c(Br)c(Br)c3c2n1CCC3 (centres unmarked) [Example 1E] belongs to which category?
mid value

Now give it for C[C@@H]1CN(c2nc3c(I)c(Br)c(Br)c4c3n2CCC4)CCN1 [Example 3AD] too.
small value

Now consider NCC1CN(c2nc3c(Br)c(Br)c(Br)c4c3n2CCC4)CCO1 (centres unmarked) [Example 1AF] and answer again.
mid value

Cool, now CN1CCN(c2nc3c(I)c(Br)c(Br)c4c3n2CCC4)CC1 [Example 3AM]
large value

Brc1c(Br)c2c3c(nc(NC4CCNCC4)n3CCC2)c1Br [Example 1J] ?
small value

Then C[C@H]1CN(c2nc3c(I)c(Br)c(Br)c4c3n2CCC4)CCN1 [Example 3T] ?
mid value

Now the same for Cc1c(Br)c2c3c(nc(N4CCNCC4)n3CCC2)c1Br [Example 1AX]
mid value

Also CN1CCC(c2nc3c(Br)c(Br)c(Br)c4c3n2CCC4)CC1 [Example 7B] , if possible.
large value

Also check Brc1c(Br)c2c3c(nc(NC4CCNC4)n3CCC2)c1Br (centres unmarked) [Example 1L]
mid value

Now consider Brc1c(Br)c2c3c(nc(N4CCNCC4)n3CCC2)c1Br [Example 6, maleate] .
small value

Query Cc1c(Br)c(Br)c2c3c1nc(NCCN)n3CCC2 [Example 1O] next
mid value

Follow-up item: CC1(C)CN(c2nc3c(I)c(Br)c(Br)c4c3n2CCC4)CCN1 [Example 3W]
mid value

Input NC1CCCN(c2nc3c(Br)c(Br)c(Br)c4c3n2CCC4)C1 (centres unmarked) [Example 1I]
mid value

Can you check Cc1c(Br)c(Br)c2c3c1nc(N[C@H]1CCNC1)n3CCC2 [Example 1AL] next?
large value

Lookup Cc1c(Br)c2c3c(nc(NCCN)n3CCC2)c1Br [Example 1P]
mid value

What do we get for N[C@@H]1CCCC[C@H]1Nc1nc2c(Br)c(Br)c(Br)c3c2n1CCC3 [Example 1B] ?
mid value

And for COc1c(Br)c2c3c(nc(N4CCNCC4)n3CCC2)c1Br [Example 1AN] ?
large value

Try this compound next: Brc1cc2nc(N3CCNCC3)n3c2c(c1Br)CCC3 [Example 1N]
large value

# repeat for Cc1c(Br)c(Br)c2c3c1nc(N1CCCNCC1)n3CCC2 [Example 1AZ]
mid value

Here is the next compound: Brc1c(Br)c2c3c(nc(N4CCNCC4)n3CCC2)c1I [Example 1Y]
mid value

Entry C[C@H]1CN(c2nc3c(Br)c(Br)c(Br)c4c3n2CCC4)CCN1 [Example 3AA] please
small value

What about N#Cc1c(Br)c(Br)c2c3c1nc(N1CCNCC1)n3CCC2 [Example 8B] ?
mid value

Okay, and C[C@@H]1CN(c2nc3c(Br)c(Br)c(Br)c4c3n2CCC4)CCN1 [Example 3AB] ?
small value
